Assay: xn = mol fraction of the nth substance listed
Conditions: 308.15 K; 101 kPa; x2 = 0.001799; x1 = 9.1e-07
reported-metric: electrical conductivity (S/m)
Your answer should be a plain number; it is taken to be in S/m.

Sample records with electrical conductivity:
compound="CCCCCCCCCCCCCCCC[n+]1ccccc1.O=C([O-])c1ccccc1O + NCC(=O)NCC(=O)O + O" reported_metric="electrical conductivity" obs_value=0.00487
compound="CCCCCCCCCCCCCCCC[n+]1ccccc1.O=C([O-])c1ccccc1O + C[C@H](N)C(=O)O + O" reported_metric="electrical conductivity" obs_value=0.00108

Give its electrical conductivity value. Item: CCCCCCCCCCCCCCCC[n+]1ccccc1.O=C([O-])c1ccccc1O + NCC(=O)O + O
0.00104

Give its electrical conductivity value. Item: CCCCCCCCCCCCCCCC[n+]1ccccc1.O=C([O-])c1ccccc1O + CC(C)C[C@H](N)C(=O)O + O
0.00249
